- Test system: HCT116 cells
- Assay summary: Effect of inhibiting cancer cell proliferation (MTT) in HCT116 cells
- Type: cell-based, human
- Condition set: Homo sapiens, HCT-116, 48 h, 25 μM, read-out: Cell growth inhibition (%) at 25 μM
inhibition at 25 µM values, listed per item
Report only the number, with the unit % understood.

Recorded inhibition at 25 µM, per entry:
{"columns": ["Molecule", "Assay value"],
 "data": [
  ["CC1CCCC(C)N1C(=N)NC(=N)Nc1ccc(OC(F)(F)F)c(F)c1.Cl (stereo not shown) [Example 95]", 101],
  ["CC1CCCC(C)N1C(=N)NC(=N)Nc1ccc(Cl)cc1.Cl (stereo not shown) [Example 96, hydrochloride]", 101],
  ["CC1CCCN(C(=N)NC(=N)Nc2ccc(F)c(C(F)(F)F)c2)C1.Cl (stereo not shown) [Example 71, hydrochloride]", 100],
  ["CC1CCCCN1C(=N)NC(=N)Nc1ccc(Cl)c(C(F)(F)F)c1.Cl (stereo not shown) [Example 80, hydrochloride]", 99.7],
  ["CC1CCCCN1C(=N)NC(=N)Nc1ccc(C(F)(F)F)cc1.Cl (stereo not shown) [Example 74, hydrochloride]", 100]
]}

// fetch inhibition at 25 µM given entry CC1CCCN(C(=N)NC(=N)Nc2ccc(OC(F)(F)F)c(F)c2)C1.Cl (stereo not shown) [Example 75, hydrochloride]
100

// fetch inhibition at 25 µM given entry CC1CCCCN1C(=N)NC(=N)Nc1ccc(OC(F)(F)F)c(F)c1.Cl (stereo not shown) [Example 76, hydrochloride]
100

// fetch inhibition at 25 µM given entry CC1CCCN(C(=N)NC(=N)Nc2ccc(OC(F)(F)F)cc2)C1.Cl (stereo not shown) [Example 82, hydrochloride]
100

// fetch inhibition at 25 µM given entry CC1CCCCN1C(=N)NC(=N)Nc1ccc(OC(F)(F)F)cc1.Cl (stereo not shown) [Example 72, hydrochloride]
100

// fetch inhibition at 25 µM given entry CC1CCCCN1C(=N)NC(=N)Nc1ccc(Cl)cc1.Cl (stereo not shown) [Example 77, hydrochloride]
100

// fetch inhibition at 25 µM given entry CC1CCCC(C)N1C(=N)NC(=N)Nc1cccc(OC(F)(F)F)c1.Cl (stereo not shown) [Example 90, hydrochloride]
100

// fetch inhibition at 25 µM given entry CC1CCCC(C)N1C(=N)NC(=N)Nc1ccc(C(F)(F)F)cc1.Cl (stereo not shown) [Example 91, hydrochloride]
100

----------
- System: AMPK
- Assay summary: AMPK activation effect (AMPK [pT172] ELISA) in MCF7 cells
- Assay type: cell-based, human
- Condition set: concentration at which AMPK activation reached 150%, 24 hours
- Experimental: ELISA kit (Invitrogen, Catalog No. KH00651). MCF7 cells were cultured in a DMEM medium supplemented with 10% fatal bovine serum (commercially available from Gibco Life Technologies (US)). Thereafter, the cultured MCF7 cells were put into a 6-well plate with approximately 5×10^5 cells per well, and cultured in an incubator supplied with 5% CO2. Culture media were treated with the derivatives synthesized in the Examples at concentrations of 5, 10 and 50 uM, and then cultured for 24 hours. […]
Counter-ions that a name gives are not always drawn.
AC150 values, listed per item
Report only the number, with the unit µM understood.

Recorded AC150, per entry:
{"columns": ["Molecule", "Assay value"],
 "data": [
  ["Cl.N=C(NC(=N)N1CC=CCC1)Nc1ccc(Cl)c(C(F)(F)F)c1", 0.79],
  ["CC1CCCN(C(=N)NC(=N)Nc2ccc(C(F)(F)F)c(F)c2)C1.Cl (stereo not drawn)", 0.9],
  ["CC1=CCN(C(=N)NC(=N)Nc2ccc(Br)cc2)C1.Cl", 11.9]
]}

// fetch AC150 given entry N=C(NC(=N)N1CC=CCC1)Nc1ccc(Br)cc1 [Example 36, hydrochloride]
0.87

// fetch AC150 given entry CC1CCCC(C)N1C(=N)NC(=N)Nc1ccc(C(F)(F)F)cc1.Cl (stereo not drawn)
5.6
